target: human Norepinephrine Transporter (NET), SLC6A2 (gene 6530) (UniProt P23975); assay: NVS_TR_hNET: NovaScreen (NVS) Transporter Assay for human Norepinephrine Transporter (NET) (AID 2283377);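 also: cell-free membrane protein extracted from CHO cells expressing human NET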
Sequence (P23975 whole entry, looked up): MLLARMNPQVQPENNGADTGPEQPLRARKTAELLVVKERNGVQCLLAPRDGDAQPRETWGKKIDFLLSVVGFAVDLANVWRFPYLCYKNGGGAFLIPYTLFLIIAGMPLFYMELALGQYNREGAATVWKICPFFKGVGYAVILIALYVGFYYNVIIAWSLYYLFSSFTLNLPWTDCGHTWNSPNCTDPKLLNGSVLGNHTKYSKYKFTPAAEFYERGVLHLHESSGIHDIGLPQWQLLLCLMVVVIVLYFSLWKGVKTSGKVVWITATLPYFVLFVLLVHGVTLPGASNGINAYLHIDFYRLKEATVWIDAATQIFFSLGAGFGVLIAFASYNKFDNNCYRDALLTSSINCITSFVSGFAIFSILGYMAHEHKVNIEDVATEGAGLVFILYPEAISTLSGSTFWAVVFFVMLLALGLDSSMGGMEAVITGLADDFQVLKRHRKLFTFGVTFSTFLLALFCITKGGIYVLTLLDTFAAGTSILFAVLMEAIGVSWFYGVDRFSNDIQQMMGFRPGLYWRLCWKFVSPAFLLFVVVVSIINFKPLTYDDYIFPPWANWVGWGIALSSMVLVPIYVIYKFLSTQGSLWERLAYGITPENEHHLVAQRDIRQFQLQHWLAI
Records with an inconclusive call do not appear. Calls of active or inactive are those of the source. The calls were made as follows: active = hit-call score of the fitted dose curve at least 0.9, where 1 is the maximum; inconclusive = response in the unintended direction; inactive = score below 0.9.
Choose one outcome from this list and give only that: True = active, False = inactive

Input line: # lookup: test call for CC(C)(C)OOC(=O)c1ccccc1
Output line: False

Input line: # lookup: test call for Nc1ccc(Cl)cc1N
Output line: True

Input line: # lookup: test call for Cc1cccc(N)c1N
Output line: True

Input line: # lookup: test call for Nc1ccc([N+](=O)[O-])cc1
Output line: False

Input line: # lookup: test call for CC(C)(C)C(O)(CCc1ccc(Cl)cc1)Cn1cncn1 (centres undefined)
Output line: True

Input line: # lookup: test call for CN(C)[C@@H]1C(=O)C(C(N)=O)=C(O)[C@@]2(O)C(=O)C3=C(O)c4c(O)cccc4[C@@](C)(O)[C@H]3C[C@@H]12
Output line: False

Input line: # lookup: test call for CCC(C)c1ccc(O)cc1 (centres undefined)
Output line: True

Input line: # lookup: test call for O=[N+]([O-])C(Br)(CO)CO
Output line: False

Input line: # lookup: test call for Cc1ccc(N)c(N)c1
Output line: True

Input line: # lookup: test call for COP(=S)(OC)SCN1C(=O)c2ccccc2C1=O
Output line: True

Input line: # lookup: test call for O=C(Nc1ccccc1)c1ccccc1I
Output line: True

Input line: # lookup: test call for CCC[CH2][Sn]([Cl])([CH2]CCC)[CH2]CCC
Output line: True

Input line: # lookup: test call for O=C(N[C@H](c1ccccc1)[C@@H]1CN2CCC1CC2)c1c(Cl)ccc(C(F)(F)F)c1Cl
Output line: True

Input line: # lookup: test call for Cc1cc(N=Nc2ccccc2C)ccc1N
Output line: True

* * *

read-out: Intercellular Adhesion Molecule 1 (ICAM1), ICAM1 (gene 3383); experiment: LTEA_HepaRG_ICAM1: Life Technologies and Expression Analysis (LTEA) Assay for Intercellular Adhesion Molecule 1 (ICAM1) using HepaRG (AID 2283507); conditions: mRNA level, 48 h; actives raise or lower the signal
Calls of active or inactive are those of the source. How the source made its calls: active means hit-call score of the fitted dose curve at least 0.9, where 1 is the maximum; inactive means score below 0.9.
Assay readout: outcome

>  <Molecule>
O=[N+]([O-])c1ccc(Oc2ccc(Cl)cc2Cl)cc1

>  <Experimental result>
inactive

$$$$
>  <Molecule>
CCOC(=O)[C@]1(c2ccccc2)Oc2ccccc2[C@@H]1N

>  <Experimental result>
inactive

$$$$
>  <Molecule>
CCCCCCCCCCCCCN1CC(C)OC(C)C1 (stereo not drawn)

>  <Experimental result>
inactive

$$$$
>  <Molecule>
[As]#[In]

>  <Experimental result>
inactive

$$$$
>  <Molecule>
CC(C)(O)c1cnn2c(-c3ccc(F)c(-c4c(F)cccc4C#N)c3)cnc2n1

>  <Experimental result>
inactive

$$$$

Input line: Look up and report measured outcome for this entry: COP(=S)(OC)SCN1C(=O)c2ccccc2C1=O
Output line: inactive

Input line: Look up and report measured outcome for this entry: O=Cc1ccco1
Output line: inactive

Input line: Look up and report measured outcome for this entry: CCCCCCCCOC(=O)c1ccc(C(=O)OCCCCCCCC)c(C(=O)OCCCCCCCC)c1
Output line: inactive

Input line: Look up and report measured outcome for this entry: Clc1ccccc1Cl
Output line: inactive

Input line: Look up and report measured outcome for this entry: CN(C)c1ccc(C(=O)c2ccc(N(C)C)cc2)cc1
Output line: inactive

Input line: Look up and report measured outcome for this entry: Nc1cc(Cl)cc(C(=O)O)c1Cl
Output line: inactive

Input line: Look up and report measured outcome for this entry: Brc1ccc(Oc2ccccc2)cc1
Output line: inactive

Input line: Look up and report measured outcome for this entry: CCNS(=O)(=O)C(F)(F)C(F)(F)C(F)(F)C(F)(F)C(F)(F)C(F)(F)C(F)(F)C(F)(F)F
Output line: inactive

* * *

test: APR_HepG2_StressKinase_72hr: Apredica 72-hour HepG2 Assay for Stress Kinase (AID 2282921); conditions: HepG2 stress kinase (phospho-c-Jun) imaging, actives raise or lower the signal
The source made the active and inactive calls. The calls were made as follows: active = hit-call score of the fitted dose curve at least 0.9, where 1 is the maximum; inactive = score below 0.9.
Choose one outcome from this list and give only that: true (1) for active, false (0) for inactive

Recorded results for 5 compounds are shown here.
>  <Compound>
CN(C)[C@@H]1C(=O)C(C(N)=O)=C(O)[C@@]2(O)C(=O)C3=C(O)c4c(O)cccc4[C@@](C)(O)[C@H]3C[C@@H]12

>  <Class>
false (0)

$$$$
>  <Compound>
Clc1ccccc1Cl

>  <Class>
false (0)

$$$$
>  <Compound>
CCCCCCCCOC(=O)c1ccc(C(=O)OCCCCCCCC)c(C(=O)OCCCCCCCC)c1

>  <Class>
false (0)

$$$$
>  <Compound>
ClCCOCCCl

>  <Class>
false (0)

$$$$
>  <Compound>
Nc1ccc(Cc2ccc(N)cc2)cc1

>  <Class>
false (0)

$$$$

Input line: # lookup: test call for CN(C)c1ccccc1
Output line: false (0)

Input line: # lookup: test call for CCCCC(CC)COC(=O)c1ccc(C(=O)OCC(CC)CCCC)c(C(=O)OCC(CC)CCCC)c1 (stereo not drawn)
Output line: false (0)

* * *

biological target: bovine Dopamine Receptor (DR), Non-selective Binding, DRD1 (gene 281125); assay: NVS_GPCR_bDR_NonSelective: NovaScreen (NVS) G Protein-Coupled Receptor Assay for bovine Dopamine Receptor (DR), Non-selective Binding (AID 2283241)
Inconclusive results are not listed. Activity calls are given as the source filed them. Rule for the calls: active = hit-call score of the fitted dose curve at least 0.9, where 1 is the maximum; inconclusive = response in the unintended direction; inactive = score below 0.9.
Below, each entry is listed alongside its reported AC50.

Worked set:
>  <Compound string>
CCC[CH2][Sn]([Cl])([CH2]CCC)[CH2]CCC

>  <Experimental result>
9.14 µM (active)

$$$$
>  <Compound string>
O=C(N[C@H](c1ccccc1)[C@@H]1CN2CCC1CC2)c1c(Cl)ccc(C(F)(F)F)c1Cl

>  <Experimental result>
29.1 µM (active)

$$$$
>  <Compound string>
[Cl-].[Cl-].[Hg+2]

>  <Experimental result>
11.6 µM (active)

$$$$

Now turn to the next molecule.
Input line: Look up and report measured AC50 for this entry: CCOC(=O)[C@]1(c2ccccc2)Oc2ccccc2[C@@H]1N
Output line: 1.04 µM (active)

* * *

assay: ATG_TCF_b_cat_CIS: Attagene CIS-FACTORIAL HepG2 Assay for human T-Cell-Factor with beta-catenin (TCF/b-cat) (AID 2282965); conditions: HepG2 TCF/beta-catenin cis-reporter transcription, actives raise or lower the signal
Calls of active or inactive are those of the source. How the source made its calls: active means hit-call score of the fitted dose curve at least 0.9, where 1 is the maximum; inactive means score below 0.9.
Choose one outcome from this list and give only that: class 1 for active, class 0 for inactive

Recorded results for 5 compounds are shown here.
>  <Compound>
Nc1ccc([N+](=O)[O-])cc1

>  <Class>
class 0

$$$$
>  <Compound>
CC(C)(OOC(C)(C)c1ccccc1)c1ccccc1

>  <Class>
class 0

$$$$
>  <Compound>
O=C(O)C1C2CCC(O2)C1C(=O)O (stereo not drawn)

>  <Class>
class 0

$$$$
>  <Compound>
CN(C)[C@@H]1C(=O)C(C(N)=O)=C(O)[C@@]2(O)C(=O)C3=C(O)c4c(O)cccc4[C@@](C)(O)[C@H]3C[C@@H]12

>  <Class>
class 0

$$$$
>  <Compound>
[As]#[In]

>  <Class>
class 0

$$$$

Input line: # lookup: test call for Cn1cc(-c2ccccc2)c(=O)c(-c2cccc(C(F)(F)F)c2)c1
Output line: class 1

* * *

target: human RAR-related Orphan Receptor beta (RORb), RORB (gene 6096) (UniProt Q92753); assay: ATG_RORb_TRANS: Attagene TRANS-FACTORIAL HepG2 Assay for human RAR-related Orphan Receptor beta (RORb) (AID 2283010)
Sequence (Q92753 whole entry, looked up): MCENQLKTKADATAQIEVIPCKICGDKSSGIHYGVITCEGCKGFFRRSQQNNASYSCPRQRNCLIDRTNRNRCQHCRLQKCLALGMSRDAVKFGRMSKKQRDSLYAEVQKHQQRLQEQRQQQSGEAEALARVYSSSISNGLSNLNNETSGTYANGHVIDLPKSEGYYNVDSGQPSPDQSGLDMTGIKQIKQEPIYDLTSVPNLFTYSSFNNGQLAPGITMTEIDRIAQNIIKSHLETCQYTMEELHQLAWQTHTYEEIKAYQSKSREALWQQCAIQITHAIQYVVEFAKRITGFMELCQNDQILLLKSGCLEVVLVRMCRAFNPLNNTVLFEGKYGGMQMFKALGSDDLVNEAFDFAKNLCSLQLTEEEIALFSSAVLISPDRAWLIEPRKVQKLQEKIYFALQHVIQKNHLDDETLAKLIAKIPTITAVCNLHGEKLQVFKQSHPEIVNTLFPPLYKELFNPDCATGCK
Inconclusive results are not listed. Activity calls are given as the source filed them. How the source made its calls: active means hit-call score of the fitted dose curve at least 0.9, where 1 is the maximum; inconclusive means response in the unintended direction; inactive means score below 0.9.
Assay readout: outcome

>  <Compound string>
N#CC(Br)(Br)C(N)=O

>  <System under test>
human RAR-related Orphan Receptor beta (RORb), RORB (gene 6096) (UniProt Q92753)

>  <Experimental result>
inactive

$$$$
>  <Compound string>
O=C(Nc1ccccc1)c1ccccc1I

>  <System under test>
human RAR-related Orphan Receptor beta (RORb), RORB (gene 6096) (UniProt Q92753)

>  <Experimental result>
inactive

$$$$
>  <Compound string>
C[C@]12C=CC3=C4CCC(=O)C=C4CC[C@H]3[C@@H]1CC[C@@H]2O

>  <System under test>
human RAR-related Orphan Receptor beta (RORb), RORB (gene 6096) (UniProt Q92753)

>  <Experimental result>
inactive

$$$$

* * *

Biological target: human AMP-activated Protein Kinase, alpha 1 (AMPKa1), PRKAA1 (gene 5562) (UniProt Q13131)
Sequence (Q13131 whole entry, looked up): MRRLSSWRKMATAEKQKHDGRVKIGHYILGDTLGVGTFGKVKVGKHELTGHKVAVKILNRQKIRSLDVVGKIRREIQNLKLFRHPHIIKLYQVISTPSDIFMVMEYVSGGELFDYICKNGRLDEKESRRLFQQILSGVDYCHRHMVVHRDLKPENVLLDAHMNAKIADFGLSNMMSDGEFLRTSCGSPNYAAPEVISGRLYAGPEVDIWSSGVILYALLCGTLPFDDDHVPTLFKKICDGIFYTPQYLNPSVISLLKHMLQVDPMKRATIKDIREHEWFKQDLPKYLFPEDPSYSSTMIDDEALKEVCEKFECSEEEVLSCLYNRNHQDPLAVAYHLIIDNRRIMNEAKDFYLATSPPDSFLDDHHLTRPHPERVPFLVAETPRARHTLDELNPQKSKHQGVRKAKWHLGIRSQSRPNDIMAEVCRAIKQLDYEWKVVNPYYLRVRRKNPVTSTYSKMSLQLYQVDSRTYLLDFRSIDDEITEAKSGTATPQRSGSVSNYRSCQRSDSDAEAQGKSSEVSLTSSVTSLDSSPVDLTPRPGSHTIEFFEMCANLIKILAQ
Test: NVS_ENZ_hAMPKa1: NovaScreen (NVS) Enzymatic Assay for human AMP-activated Protein Kinase, alpha 1 (AMPKa1) (AID 2283130)
Procedure: NVS_ENZ_hAMPKa1 is a biochemical, single-readout assay that uses extracted gene-proteins in a cell-free assay. Measurements were taken 1 hour after chemical dosing in a 384-well plate.NVS_ENZ_hAMPKa1 is one of one assay component(s) measured or calculated from the NVS_ENZ_hAMPKa1 assay. […] This assay endpoint, NVS_ENZ_hAMPKa1, was analyzed in the positive analysis fitting direction relative to DMSO as the negative control and baseline of activity. […]
Results filed as inconclusive are left out. Activity calls are given as the source filed them. How the source made its calls: active means hit-call score of the fitted dose curve at least 0.9, where 1 is the maximum; inconclusive means response in the unintended direction; inactive means score below 0.9.
Choose one outcome from this list and give only that: active, inactive

Recorded results for 2 compounds are shown here.
>  <Compound>
Oc1ccc2ccc3cccc4ccc1c2c34

>  <System under test>
human AMP-activated Protein Kinase, alpha 1 (AMPKa1), PRKAA1 (gene 5562) (UniProt Q13131)

>  <Class>
active

$$$$
>  <Compound>
Oc1ccccc1Cl

>  <System under test>
human AMP-activated Protein Kinase, alpha 1 (AMPKa1), PRKAA1 (gene 5562) (UniProt Q13131)

>  <Class>
inactive

$$$$

Input line: # lookup: test call for CCN(CC)N=O
Output line: inactive

Input line: # lookup: test call for CCCCC(CC)COC(=O)c1ccc(C(=O)OCC(CC)CCCC)c(C(=O)OCC(CC)CCCC)c1 (centres undefined)
Output line: inactive

Origin of measurements: PubChem BioAssay (EPA / NIEHS)
